assayed-system: 5-HT2B (Homo sapiens, UniProt P41595)
Sequence (P41595 whole entry): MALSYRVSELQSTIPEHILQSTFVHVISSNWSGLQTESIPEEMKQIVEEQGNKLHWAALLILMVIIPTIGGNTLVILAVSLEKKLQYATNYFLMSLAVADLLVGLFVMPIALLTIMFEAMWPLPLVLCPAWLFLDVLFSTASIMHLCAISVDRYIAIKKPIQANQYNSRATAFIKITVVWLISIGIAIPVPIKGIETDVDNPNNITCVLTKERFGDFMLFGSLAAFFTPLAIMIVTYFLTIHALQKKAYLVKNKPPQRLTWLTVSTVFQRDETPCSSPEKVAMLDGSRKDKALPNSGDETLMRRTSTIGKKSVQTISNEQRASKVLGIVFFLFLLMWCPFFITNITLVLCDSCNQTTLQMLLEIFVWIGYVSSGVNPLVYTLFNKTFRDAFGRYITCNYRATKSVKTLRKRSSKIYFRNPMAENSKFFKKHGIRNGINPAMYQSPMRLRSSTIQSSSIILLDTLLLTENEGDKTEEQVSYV
test-protocol: IPOne (IP1 HTRF) assay, CHO-K1 cells expressing human 5-HT2B
Assay type: cell-based
Set-up: expressed in transfected cells; host or cells: CHO-K1
test-settings: CHO-K1; @0.3 uM; percentage of reference agonist α-Me-5-HT at its EC100
Binary classification by activation at 0.3 µM, with 20% as an inclusive lower bound for Condition met; all other cases are Condition not met.

Incoming: Kindly determine if activation at 0.3 µM recorded for COC(=O)[C@]1(C)CCCN1CCc1c[nH]c2ccccc12 [Compound 92] is above or exactly 20%.
Outgoing: Condition not met

Incoming: // inclusive: activation at 0.3 µM at least 20%? input: CCOC(=O)[C@@H]1CCCN1CCc1c[nH]c2ccccc12 [Compound 52]
Outgoing: Condition met

Incoming: Item COc1ccc(Br)c2[nH]cc(CCN3CCCC3CO)c12 (stereo not shown) [Compound 42] with activation at 0.3 µM of 20% or above?
Outgoing: Condition met

Incoming: Exam item: decide whether the reported activation at 0.3 µM for C[C@@]1(CO)CCCN1CCc1c[nH]c2ccccc12 [Compound 93] is at least 20%.
Outgoing: Condition not met

Incoming: Please tell me: is the molecule CC[C@H](O)[C@@H]1CCCN1CCc1c[nH]c2ccccc12 [Compound 78] at or over 20% in terms of activation at 0.3 µM?
Outgoing: Condition not met

Incoming: Check the entry C[C@H](O)[C@@H]1CCCN1CCc1c[nH]c2ccccc12 [Compound 73] : does activation at 0.3 µM equal or exceed 20%?
Outgoing: Condition met

Incoming: Reported activation at 0.3 µM at or above 20%? COc1ccc2[nH]cc(CCN3CCCC3CO)c2c1 (stereo not shown) [Compound 30]
Outgoing: Condition met

Incoming: Has C[C@@H](O)[C@@H]1CCCN1CCc1c[nH]c2ccccc12 [Compound 75] a recorded activation at 0.3 µM greater than or equal to 20%?
Outgoing: Condition not met

Incoming: Can OC[C@@H]1CCCN1CCc1c[nH]c2ccc(O)cc12 [Compound 51] be said to have activation at 0.3 µM at or above 20%?
Outgoing: Condition met

Incoming: Does the molecule OCC1CCCN1CCc1c(Cl)[nH]c2ccc(F)cc12 (stereo not shown) [Compound 70] have recorded activation at 0.3 µM that is 20% or more?
Outgoing: Condition met
